target: δ-opioid receptor (DOR) (Rattus norvegicus, UniProt P33533); construct: All assay tubes contained 100 μL homogenate suspension; test: Opioid receptor binding, DOR ([3H]DADLE), rat brain homogenate; settings: [3H]DADLE, whole rat brains excluding cerebellum; read-out: DOR Binding (Ki ± SEM)
Sequence (P33533 whole entry): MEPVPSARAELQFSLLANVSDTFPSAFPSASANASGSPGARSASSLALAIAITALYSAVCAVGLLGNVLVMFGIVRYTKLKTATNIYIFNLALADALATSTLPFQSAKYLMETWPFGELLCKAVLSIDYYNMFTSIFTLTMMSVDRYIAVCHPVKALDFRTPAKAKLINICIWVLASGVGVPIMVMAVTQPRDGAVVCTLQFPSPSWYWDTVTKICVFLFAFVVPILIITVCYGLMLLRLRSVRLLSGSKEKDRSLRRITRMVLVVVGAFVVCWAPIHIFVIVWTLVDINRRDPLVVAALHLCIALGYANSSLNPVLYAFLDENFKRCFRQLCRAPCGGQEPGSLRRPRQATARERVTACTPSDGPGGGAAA
quantity-name: Ki (nM)
State just the number; it will be interpreted in nM.

>>> observed_result("Oc1cccc2c1O[C@H]1CN(C[C@H]3C[C@@H]3c3ccccc3)[C@H]3CCC[C@@]21C3 [(+)-17]")
49.4
>>> observed_result("Oc1cccc2c1O[C@H]1CN(CCc3ccccc3)[C@H]3CCC[C@@]21C3 [(-)-1]")
34.8

Moving on to the next molecule.
Quick one: Ki of Oc1cccc2c1O[C@H]1CN(C[C@@H]3C[C@@H]3c3ccccc3)[C@H]3CCC[C@@]21C3 [(-)-18] ?
89

----------
target: human δ-opioid receptor (OPRD1) (Homo sapiens, UniProt P41143); experiment: Forskolin-induced cAMP accumulation assay, DOR agonist mode
Sequence (P41143 whole entry): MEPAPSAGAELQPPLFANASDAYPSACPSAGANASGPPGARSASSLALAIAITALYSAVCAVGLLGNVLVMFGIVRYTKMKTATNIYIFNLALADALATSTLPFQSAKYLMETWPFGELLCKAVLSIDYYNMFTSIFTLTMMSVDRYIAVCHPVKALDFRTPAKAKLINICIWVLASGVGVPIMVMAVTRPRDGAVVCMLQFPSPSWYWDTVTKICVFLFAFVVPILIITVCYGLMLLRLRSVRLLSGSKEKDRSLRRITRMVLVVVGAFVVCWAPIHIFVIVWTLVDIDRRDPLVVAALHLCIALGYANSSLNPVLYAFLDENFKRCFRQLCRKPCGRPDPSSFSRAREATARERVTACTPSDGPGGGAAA
Catalogue of EC50 readings, one per entry.

>>> observed_result("Oc1cccc2c1O[C@H]1CN(C[C@H]3C[C@@H]3c3ccccc3)[C@H]3CCC[C@@]21C3 [(+)-17]")
"> 10 µM"

Moving on to the next compound.
Quick one: EC50 of Oc1cccc2c1O[C@H]1CN(CCc3ccccc3)[C@H]3CCC[C@@]21C3 [(-)-1] ?
> 10 µM

----------
biological target: CYP2D6 (Homo sapiens, UniProt P10635); construct: selected human liver microsomal cytochrome P450 isozymes (CYP1A2, CYP2C9, CYP2C19, CYP2D6, and CYP3A); from tissue; host or cells: human liver microsomes; experiment: P450 inhibition, human liver microsomal CYP2D6; format: in vitro ADME; settings: human, human liver microsomes, read-out: 2D6 %Inhibition
Sequence (P10635 whole entry): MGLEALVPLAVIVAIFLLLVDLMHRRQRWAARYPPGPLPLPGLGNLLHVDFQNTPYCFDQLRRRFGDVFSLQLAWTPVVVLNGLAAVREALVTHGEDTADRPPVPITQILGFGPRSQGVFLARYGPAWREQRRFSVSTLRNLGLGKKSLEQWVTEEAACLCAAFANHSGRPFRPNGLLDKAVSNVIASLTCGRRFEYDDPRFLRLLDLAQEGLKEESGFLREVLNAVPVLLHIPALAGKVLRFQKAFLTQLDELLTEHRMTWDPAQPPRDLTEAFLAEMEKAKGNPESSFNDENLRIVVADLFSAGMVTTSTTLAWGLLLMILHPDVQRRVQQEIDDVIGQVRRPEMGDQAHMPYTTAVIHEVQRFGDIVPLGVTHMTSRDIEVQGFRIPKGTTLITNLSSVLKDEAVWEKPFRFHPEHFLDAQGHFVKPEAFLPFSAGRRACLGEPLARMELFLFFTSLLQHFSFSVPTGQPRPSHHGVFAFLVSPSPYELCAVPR
quantity-name: inhibition at 10 µM (%)
State just the number; it will be interpreted in %.

Quick one: inhibition at 10 µM of C=C[C@H]1C[N@@]2CC[C@H]1C[C@@H]2[C@@H](O)c1ccnc2ccc(OC)cc12 [Quinidine, reference compound] ?
94.2

----------
tested on: CYP3A; test: P450 inhibition, human liver microsomal CYP3A; type: in vitro ADME; details: human liver microsomes, read-out: 3A %Inhibition
quantity-name: inhibition at 10 µM

>>> observed_result("Oc1cccc2c1O[C@H]1CN(C[C@H]3C[C@@H]3c3ccccc3)[C@H]3CCC[C@@]21C3 [(+)-17]")
"24.7%"

Moving on to the next molecule.
Quick one: inhibition at 10 µM of CC(=O)N1CCN(c2ccc(OCC3COC(Cn4ccnc4)(c4ccc(Cl)cc4Cl)O3)cc2)CC1 (centres unmarked) [Ketoconazole, reference compound] ?
98.8%

----------
biological target: CYP2C9 (Homo sapiens); test: P450 inhibition, human liver microsomal CYP2C9; settings: microsomes
Sequence (P11712 whole entry): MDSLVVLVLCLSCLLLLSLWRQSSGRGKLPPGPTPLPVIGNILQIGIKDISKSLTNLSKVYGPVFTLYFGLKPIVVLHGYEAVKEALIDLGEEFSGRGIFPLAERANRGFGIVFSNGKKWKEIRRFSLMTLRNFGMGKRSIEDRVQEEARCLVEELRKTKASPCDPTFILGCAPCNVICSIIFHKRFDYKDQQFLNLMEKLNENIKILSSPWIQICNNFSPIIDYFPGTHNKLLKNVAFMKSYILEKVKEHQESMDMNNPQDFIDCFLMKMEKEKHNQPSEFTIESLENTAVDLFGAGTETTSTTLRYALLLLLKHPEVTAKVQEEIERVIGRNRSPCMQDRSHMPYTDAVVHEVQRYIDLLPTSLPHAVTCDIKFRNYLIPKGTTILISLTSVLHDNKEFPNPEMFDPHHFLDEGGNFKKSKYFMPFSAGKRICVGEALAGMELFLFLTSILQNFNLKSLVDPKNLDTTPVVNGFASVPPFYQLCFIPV
quantity-name: inhibition at 10 µM (%)
State just the number; it will be interpreted in %.

>>> observed_result("Oc1cccc2c1O[C@H]1CN(C[C@H]3C[C@@H]3c3ccccc3)[C@H]3CCC[C@@]21C3 [(+)-17]")
36.6
>>> observed_result("O=C1CC[C@@]2(O)[C@H]3Cc4ccc(O)c5c4[C@@]2(CCN3CC2CC2)[C@H]1O5 [Naltrexone]")
0

Moving on to the next compound.
Quick one: inhibition at 10 µM of Nc1ccc(S(=O)(=O)Nc2ccnn2-c2ccccc2)cc1 ?
85.2
